# experimental-system: Hck (UniProt P08631)
# Sequence (P08631 whole entry, looked up): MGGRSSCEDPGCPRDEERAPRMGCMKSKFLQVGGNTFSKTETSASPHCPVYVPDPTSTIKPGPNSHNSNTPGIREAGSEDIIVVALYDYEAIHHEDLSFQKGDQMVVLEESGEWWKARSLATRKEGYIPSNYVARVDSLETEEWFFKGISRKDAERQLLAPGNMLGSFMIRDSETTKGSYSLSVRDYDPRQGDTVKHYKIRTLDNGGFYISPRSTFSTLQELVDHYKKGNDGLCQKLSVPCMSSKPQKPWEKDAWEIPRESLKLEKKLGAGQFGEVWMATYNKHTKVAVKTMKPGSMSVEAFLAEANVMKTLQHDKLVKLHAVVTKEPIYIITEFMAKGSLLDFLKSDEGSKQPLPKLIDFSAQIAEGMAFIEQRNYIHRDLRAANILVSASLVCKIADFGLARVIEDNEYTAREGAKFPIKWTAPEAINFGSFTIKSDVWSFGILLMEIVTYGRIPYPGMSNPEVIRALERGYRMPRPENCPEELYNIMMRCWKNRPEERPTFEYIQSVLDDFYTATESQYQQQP
# assay-comment: phosphorylation enrichment, bacterial display (enrichment ratio); higher = better substrate or ligand; peptides without Tyr show the background;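 note: 11-residue human phosphosite peptides and single-mutation variants displayed on the E. coli surface, counted by deep sequencing, each peptide's frequency after selection divided by its frequency in the unselected input library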;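 note: frequency after pTyr selection over input frequency; kinase dosed for 20-30% of maximal phosphorylation in three min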
measure: phosphorylation enrichment
Respond with the number and no other words.

Worked cases, phosphorylation enrichment given:
sequence-entry	experimental-system	recorded-value
DLHGIYQKLVI	Hck (UniProt P08631)	7.64
RTTIHYNYMCN [TP53_Y234_C229R]	Hck (UniProt P08631)	1.11

Shift focus to the following entry.
Fill in: phosphorylation enrichment of CNRADYSKLAP [GNE_Y22] is ___
0.459

----------
# Test system: c-Src
# assay-comment: phosphorylation enrichment, bacterial display (enrichment ratio); higher = better substrate or ligand; peptides without Tyr show the background
phosphorylation enrichment values by entry

Solved cases below.
sequence-entry	phosphorylation enrichment
TEQDPYNNIVR [MMUT_Y364]	0.581
LSGVIYVILGK [PMP22_Y153_R157G]	0.796
NSGFFYKTAEE [CCT6B_Y250]	0.476
QRALLYEDALF [UNC13D_Y56_YF]	1.5
VHNLDYYKMTT [FGFR3_Y647_K650M]	0.496

Here is another sequence to look at.
Find the recorded phosphorylation enrichment belonging to SAGSSYSISSI [PAX5_Y179_G183S] and report it.
0.42

----------
# experimental-system: EPHB2 (UniProt P29323)
# Sequence (P29323 whole entry, looked up): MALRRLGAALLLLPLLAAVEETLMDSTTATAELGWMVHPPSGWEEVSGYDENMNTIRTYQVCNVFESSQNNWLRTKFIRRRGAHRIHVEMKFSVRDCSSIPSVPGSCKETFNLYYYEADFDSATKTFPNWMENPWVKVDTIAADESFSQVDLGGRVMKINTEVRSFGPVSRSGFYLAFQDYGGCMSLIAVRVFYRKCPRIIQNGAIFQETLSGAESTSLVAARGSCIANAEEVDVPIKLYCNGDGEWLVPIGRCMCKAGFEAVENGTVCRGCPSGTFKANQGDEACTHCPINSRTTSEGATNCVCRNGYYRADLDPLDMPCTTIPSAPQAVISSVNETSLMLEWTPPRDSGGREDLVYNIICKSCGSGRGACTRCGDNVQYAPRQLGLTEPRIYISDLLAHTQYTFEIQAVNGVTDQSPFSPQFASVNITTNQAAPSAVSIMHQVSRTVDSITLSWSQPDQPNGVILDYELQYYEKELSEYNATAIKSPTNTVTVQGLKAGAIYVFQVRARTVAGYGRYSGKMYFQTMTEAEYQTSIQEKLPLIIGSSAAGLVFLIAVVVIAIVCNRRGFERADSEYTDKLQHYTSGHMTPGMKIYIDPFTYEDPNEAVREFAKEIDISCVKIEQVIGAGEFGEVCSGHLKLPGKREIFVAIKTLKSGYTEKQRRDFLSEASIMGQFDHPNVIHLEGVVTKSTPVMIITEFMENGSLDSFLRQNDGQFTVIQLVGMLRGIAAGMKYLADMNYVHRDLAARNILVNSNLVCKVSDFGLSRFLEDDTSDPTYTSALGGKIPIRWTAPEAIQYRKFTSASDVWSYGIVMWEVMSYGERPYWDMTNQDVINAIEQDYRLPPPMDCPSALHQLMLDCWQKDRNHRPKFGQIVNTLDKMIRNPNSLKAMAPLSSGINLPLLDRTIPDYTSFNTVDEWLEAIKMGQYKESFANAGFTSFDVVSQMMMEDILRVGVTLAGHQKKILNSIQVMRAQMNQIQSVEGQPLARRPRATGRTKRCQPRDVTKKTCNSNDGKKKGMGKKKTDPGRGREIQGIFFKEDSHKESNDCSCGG
# assay-comment: phosphorylation enrichment, bacterial display (enrichment ratio); higher = better substrate or ligand; peptides without Tyr show the background
Reported phosphorylation enrichment values for a set of sequences
Kindly provide the number alone.

# phosphorylation enrichment lookup, item ISKKHYAGLLF [POLD1_Y809_R808H]
0.381

Using the record for REVVNYVQKRN [RMI1_Y450] , report its phosphorylation enrichment.
0.595

What does the record list as phosphorylation enrichment for EASGIYVKSVI [PATJ_Y396_I400V] ?
0.465

Quick one: phosphorylation enrichment of KLIMEYLPFGS [JAK2_Y931_YF] ?
0.571

I'd like to know its phosphorylation enrichment. The sequence in question is LGKGSYAKVKS [TSSK2_Y23]
0.875

Request the reported phosphorylation enrichment associated with LGMSQYFRLFN [CPT2_Y217_D213G]
0.839

Reported phosphorylation enrichment, sequence NVADHYGVYKP [ATP6V0D2_Y271] : ____
0.391

Entry SLLTDYSPQLQ [OTC_Y345] : reported phosphorylation enrichment = ?
0.508

Item GKLIFYDLRGE [KARS1_Y145] has what recorded phosphorylation enrichment?
0.637

Recorded phosphorylation enrichment for AGAKTYKMSMA [CPS1_Y309] , please?
0.264

Item PEVSGYCHFAD [TG_Y234_C237Y_YF] has what recorded phosphorylation enrichment?
0.782

Give the measured phosphorylation enrichment of AEDKPYAELWT [MPI_Y46_M51T] .
0.737

Which phosphorylation enrichment is reported for this sequence? KNKNRYKNILP [PTPN11_Y279]
0.665

# lookup: phosphorylation enrichment of EYKDAYTFAAD [BRDT_Y335_K336T]
0.595

Given TSSSSYFDEPV [ARFGAP3_Y356] , state its recorded phosphorylation enrichment.
0.576

----------
# Tested on: c-Src
# assay-comment: phosphorylation enrichment, bacterial display (enrichment ratio); higher = better substrate or ligand; peptides without Tyr show the background
Reported phosphorylation enrichment by item:
Reply briefly: the number, and no unit.

Recorded phosphorylation enrichment, per entry:
sequence-entry	phosphorylation enrichment
NVADHYGVYKP [ATP6V0D2_Y271]	4.89
RGNMFYENSFA [EGFR_Y113_YF]	0.922
QGCGIYKDYYR [PLA2G2D_Y82_S80G]	6.8

Alright, here's another sequence for you.
phosphorylation enrichment of TNYSLYLRSLE [MTM1_Y71_R69S] on c-Src?
0.42

----------
Recorded phosphorylation enrichment by entry
# experimental-system: FGFR3 (UniProt P22607)
# Sequence (P22607 whole entry, looked up): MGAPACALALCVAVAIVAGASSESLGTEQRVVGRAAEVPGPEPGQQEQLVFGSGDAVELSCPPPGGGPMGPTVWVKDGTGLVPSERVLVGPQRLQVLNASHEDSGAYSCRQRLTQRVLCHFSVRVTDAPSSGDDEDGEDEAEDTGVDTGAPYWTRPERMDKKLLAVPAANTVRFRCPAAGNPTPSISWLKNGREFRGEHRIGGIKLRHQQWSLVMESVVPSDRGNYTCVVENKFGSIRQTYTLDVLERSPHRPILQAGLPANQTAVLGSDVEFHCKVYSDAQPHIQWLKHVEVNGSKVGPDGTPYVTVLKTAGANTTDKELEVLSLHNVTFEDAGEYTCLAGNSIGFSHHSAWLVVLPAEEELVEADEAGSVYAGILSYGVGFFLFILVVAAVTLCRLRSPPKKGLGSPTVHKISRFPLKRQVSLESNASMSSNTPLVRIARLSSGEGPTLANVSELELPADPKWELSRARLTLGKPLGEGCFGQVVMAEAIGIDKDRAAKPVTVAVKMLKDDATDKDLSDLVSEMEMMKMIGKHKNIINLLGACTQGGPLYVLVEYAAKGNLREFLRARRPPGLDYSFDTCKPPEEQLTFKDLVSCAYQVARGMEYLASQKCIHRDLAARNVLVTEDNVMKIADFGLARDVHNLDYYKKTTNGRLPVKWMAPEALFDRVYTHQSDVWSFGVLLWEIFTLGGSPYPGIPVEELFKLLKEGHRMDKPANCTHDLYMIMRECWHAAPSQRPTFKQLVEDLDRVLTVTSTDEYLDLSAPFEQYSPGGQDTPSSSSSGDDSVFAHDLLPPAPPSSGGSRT
# assay-comment: phosphorylation enrichment, bacterial display (enrichment ratio); higher = better substrate or ligand; peptides without Tyr show the background
A bare number is all that is needed in reply.

sequence-entry	phosphorylation enrichment
RRFSSYSQMEN [PKP1_Y120]	1.18
LGKGSYAKVRS [TSSK2_Y23_K27R]	0.699
GFVEDYRPPFY [ACVRL1_Y421_I417F]	0.754
VFPIDYFFPPQ [AR_Y552_L548F_YF]	10.7
SEHLTYLEFKS [RASGRP1_Y215]	1.16

We now examine a further sequence.
Could you share which phosphorylation enrichment value was measured for QGCGIYKDYYR [PLA2G2D_Y82_S80G] ?
1.19

----------
# experimental-system: FGFR3 (UniProt P22607)
# assay-comment: phosphorylation enrichment, bacterial display (enrichment ratio); higher = better substrate or ligand; peptides without Tyr show the background
Let's look at some sequences and their measured phosphorylation enrichment.
Lab note: record the figure alone, no unit after it.

sequence-entry	experimental-system	phosphorylation enrichment
ILDEAYVMAGA [ERBB2_Y772_V777A]	FGFR3 (UniProt P22607)	0.789
ASMAKYYASGI [ACADSB_Y372_E376G]	FGFR3 (UniProt P22607)	0.568
FIGVTYKNKED [PDGFRA_Y993_E996K_YF]	FGFR3 (UniProt P22607)	0.743

Please turn your attention to the following entry.
Report phosphorylation enrichment for DVFRQYASLTG [GANAB_Y379] please.
0.428

----------
# Test system: Fer (mouse)
# assay-comment: phosphorylation enrichment, bacterial display (enrichment ratio); higher = better substrate or ligand; peptides without Tyr show the background
Here the recorded phosphorylation enrichment is given for each entry.
Answer with a bare number; do not write a unit.

// below: answered sequences
sequence-entry	recorded-value
CTTIHYNYMCI [TP53_Y234_N239I]	1.05
RLVTRYIYNRE [HLA-DQB1_Y62_Y58L]	0.408
STTIHYNYMCN [TP53_Y234_C229S]	0.592
PSQRRYLYYYS [PTEN_Y174_V175L]	0.92
LQEKSYIKGTS [LCTL_Y331]	0.96

Data request, read-out phosphorylation enrichment, for HRGHLYLAIEY [TEK_Y899_Y897H]
0.741

What value of phosphorylation enrichment has been reported for the following sequence? DDDPEYRKFLE [UPF3B_Y160]
0.478

Name the recorded phosphorylation enrichment for TQNGVYSAANY [DDX5_Y535] .
1.87

Given the entry SHTPSYCDESL [RITA1_Y109] , report its measured phosphorylation enrichment.
0.505

Which phosphorylation enrichment is listed for VPLATYMRIFK [RPL21_Y30_YF] ?
0.406

What measured phosphorylation enrichment goes with CNSFQYGGGGG [NPPA_Y151_R150Q] ?
0.512

What value of measured phosphorylation enrichment is listed for KLPFLYDDPFS [GPX2_Y127_P126L_YF] ?
1.6

Give its phosphorylation enrichment value. Item: VSRGRYRPEEC [B4GALT4_Y113_Q116E]
0.52

// returns reported phosphorylation enrichment for input CETMEYLESKQ [BTK_Y511_A508T]
0.705

----------
# Test system: AncSZ
# assay-comment: phosphorylation enrichment, bacterial display (enrichment ratio); higher = better substrate or ligand; peptides without Tyr show the background
Let's look at some sequences and their measured phosphorylation enrichment.
Number only, please.

sequence-entry	experimental-system	phosphorylation enrichment
ANNEFYFRVCA	AncSZ	1.28
QLQTTYPSSDN [MAX_Y115_N114T]	AncSZ	0.773
IYRASYYRRGD [LTK_Y676]	AncSZ	0.821
QDDTVYMGKVT [DCTN1_Y1244]	AncSZ	1.96
VHVEVYDRPSP	AncSZ	1.39

What does the record list as phosphorylation enrichment for GFQPDYGQPAG [SYP_Y278_YF] ?
0.583

Field request: phosphorylation enrichment | item: VSVVDYVEPSP [TXNRD2_Y70_A66S]
1.21

----------
Known phosphorylation enrichment of a selection of sequences
# experimental-system: FGFR1 (UniProt P11362)
# Sequence (P11362 whole entry, looked up): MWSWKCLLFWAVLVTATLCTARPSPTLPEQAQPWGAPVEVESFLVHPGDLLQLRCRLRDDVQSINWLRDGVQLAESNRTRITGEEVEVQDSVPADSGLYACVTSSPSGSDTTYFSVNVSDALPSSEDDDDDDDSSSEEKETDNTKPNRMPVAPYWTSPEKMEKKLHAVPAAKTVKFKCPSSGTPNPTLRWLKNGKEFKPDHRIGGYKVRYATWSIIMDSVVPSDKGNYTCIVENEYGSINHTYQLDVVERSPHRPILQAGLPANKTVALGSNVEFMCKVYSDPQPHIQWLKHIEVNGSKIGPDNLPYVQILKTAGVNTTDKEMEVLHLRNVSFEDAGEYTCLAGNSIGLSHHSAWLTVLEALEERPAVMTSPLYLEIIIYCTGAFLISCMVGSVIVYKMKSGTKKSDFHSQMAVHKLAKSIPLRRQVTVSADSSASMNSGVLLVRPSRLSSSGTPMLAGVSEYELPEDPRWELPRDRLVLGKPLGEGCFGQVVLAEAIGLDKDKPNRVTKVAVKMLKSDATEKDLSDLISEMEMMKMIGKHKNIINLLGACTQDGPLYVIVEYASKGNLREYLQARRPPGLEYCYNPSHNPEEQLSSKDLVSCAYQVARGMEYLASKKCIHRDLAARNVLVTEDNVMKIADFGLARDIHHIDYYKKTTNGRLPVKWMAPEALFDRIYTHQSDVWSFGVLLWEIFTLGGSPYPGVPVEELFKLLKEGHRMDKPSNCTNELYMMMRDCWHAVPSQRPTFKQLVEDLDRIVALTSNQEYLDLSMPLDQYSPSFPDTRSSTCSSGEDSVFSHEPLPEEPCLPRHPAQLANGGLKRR
# assay-comment: phosphorylation enrichment, bacterial display (enrichment ratio); higher = better substrate or ligand; peptides without Tyr show the background
Number, no unit, nothing else.

Worked examples follow.
sequence-entry	experimental-system	recorded-value
CETMEYLESKQ [BTK_Y511_A508T]	FGFR1 (UniProt P11362)	0.688
IALNSCHSRNC [IFNGR1_Y397_Y397C]	FGFR1 (UniProt P11362)	0.486

Given the sequence VAVVQYSGTGQ [COL6A1_Y878] , what is its reported phosphorylation enrichment?
0.487

Endpoint output: phosphorylation enrichment of RTEAQYRFIYM [PTPN11_Y511_Q506R] . Value?
0.683

----------
# experimental-system: EPHB1 (UniProt P54762)
# Sequence (P54762 whole entry, looked up): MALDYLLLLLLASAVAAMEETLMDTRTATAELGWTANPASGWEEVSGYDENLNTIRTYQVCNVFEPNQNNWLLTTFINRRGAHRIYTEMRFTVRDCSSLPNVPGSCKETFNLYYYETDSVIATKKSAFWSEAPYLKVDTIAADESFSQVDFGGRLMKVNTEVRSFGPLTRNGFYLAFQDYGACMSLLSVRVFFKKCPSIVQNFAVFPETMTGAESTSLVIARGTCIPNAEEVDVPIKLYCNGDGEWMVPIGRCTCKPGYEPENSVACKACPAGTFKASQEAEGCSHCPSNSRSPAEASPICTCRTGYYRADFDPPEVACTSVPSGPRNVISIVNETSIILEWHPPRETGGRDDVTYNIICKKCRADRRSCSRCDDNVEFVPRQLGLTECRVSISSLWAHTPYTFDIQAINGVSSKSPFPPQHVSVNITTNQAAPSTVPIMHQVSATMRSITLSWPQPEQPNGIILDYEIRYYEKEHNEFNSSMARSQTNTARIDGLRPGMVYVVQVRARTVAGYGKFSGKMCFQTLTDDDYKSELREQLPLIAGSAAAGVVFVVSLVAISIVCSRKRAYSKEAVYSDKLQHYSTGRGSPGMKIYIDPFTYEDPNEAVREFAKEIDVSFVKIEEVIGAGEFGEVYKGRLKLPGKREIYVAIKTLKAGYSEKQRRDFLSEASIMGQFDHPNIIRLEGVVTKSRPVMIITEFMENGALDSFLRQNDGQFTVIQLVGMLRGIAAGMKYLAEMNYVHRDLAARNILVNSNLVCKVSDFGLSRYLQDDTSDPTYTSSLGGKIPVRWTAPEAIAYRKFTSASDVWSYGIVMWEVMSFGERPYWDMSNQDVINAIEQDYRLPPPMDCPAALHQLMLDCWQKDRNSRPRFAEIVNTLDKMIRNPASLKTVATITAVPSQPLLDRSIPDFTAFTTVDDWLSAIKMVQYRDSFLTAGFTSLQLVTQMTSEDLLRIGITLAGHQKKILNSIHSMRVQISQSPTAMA
# assay-comment: phosphorylation enrichment, bacterial display (enrichment ratio); higher = better substrate or ligand; peptides without Tyr show the background
measure: phosphorylation enrichment
Response field accepts a number only; no unit should be typed.

sequence-entry	experimental-system	phosphorylation enrichment
TSSSSYFDEPV [ARFGAP3_Y356]	EPHB1 (UniProt P54762)	0.549
KRLAVYQAGAR [APOE_Y180]	EPHB1 (UniProt P54762)	0.316
RIGRKYKKVRF [F8_Y442]	EPHB1 (UniProt P54762)	0.338
EKKDIYKAGEQ [CFH_Y1008_V1007I]	EPHB1 (UniProt P54762)	0.353
GADDSYFTVRS [ZAP70_Y492_A495V_YF]	EPHB1 (UniProt P54762)	0.558

# phosphorylation enrichment lookup, item LLILEYAKFGS [RET_Y806_V804L_YF]
1.49

phosphorylation enrichment for GSRGKYSSGFR [ATM_Y332] ?
0.318

Using the record for LQEKSYIKGTS [LCTL_Y331] , report its phosphorylation enrichment.
0.652

GET /values?readout=phosphorylation enrichment&item= VERRVYAEDPF [PCCA_Y401_C398R_YF]
0.385

Data credit: the supplement of paper PMC10065799
